So I've got a bunch of compounds here, and I need their ratio of IC50 for cells with mutant EGFR to IC50 for cells with wildtype EGFR (Mut/WT) values.
# measurement.target: EGFR Ex19del L718V (Homo sapiens, UniProt P00533, DEL746-750/L718V)
# Construct: expressed in transfected cells; host or cells: Ba/F3
# assay.overview: Ba/F3 drug screening, Cell Titer Glo, IC50 Mut/WT
# Type: cell-based
# setup.conditions: PACC; Ex19del L718V; Ba/F3; 72 hours
Answer as a number with no unit attached.

Item: CN(C)C/C=C/C(=O)Nc1cc2c(Nc3ccc(Cl)c(Br)c3)ncnc2cn1 [Tarlox-TKI] | ratio of IC50 for cells with mutant EGFR to IC50 for cells with wildtype EGFR (Mut/WT): 0.1214

Consider COc1cc2ncnc(Nc3cccc(Cl)c3F)c2cc1OC(=O)N1CCN(C)C[C@H]1C [AZD3759] . Its measured ratio of IC50 for cells with mutant EGFR to IC50 for cells with wildtype EGFR (Mut/WT) is 0.04127

GET /value?item= CNC(=O)CN1CCC(Oc2cc3c(Nc4cccc(Cl)c4F)ncnc3cc2OC)CC1 [Sapatinib] &field=ratio of IC50 for cells with mutant EGFR to IC50 for cells with wildtype EGFR (Mut/WT) returns 0.08016

For reference, reported ratio of IC50 for cells with mutant EGFR to IC50 for cells with wildtype EGFR (Mut/WT) for COc1cc2ncnc(Nc3ccc(F)c(Cl)c3)c2cc1NC(=O)/C=C/CN1CCCCC1 [Dacomitinib] stands at 0.0061

* * *

# measurement.target: EGFR V774M (Homo sapiens, UniProt P00533, V774M)
# Construct: host or cells: Ba/F3
# assay.overview: Ba/F3 drug screening, Cell Titer Glo, IC50 Mut/WT
# Type: cell-based
# setup.conditions: PACC; V774M; Ba/F3; 72 hours
Kindly supply the reported ratio of IC50 for cells with mutant EGFR to IC50 for cells with wildtype EGFR (Mut/WT) values for the records listed here.
Response field accepts a number only; no unit should be typed.

Query `COc1cc2ncnc(Nc3ccc(F)c(Cl)c3)c2cc1NC(=O)/C=C/CN1CCCCC1` on EGFR V774M (Homo sapiens, UniProt P00533, V774M); ratio of IC50 for cells with mutant EGFR to IC50 for cells with wildtype EGFR (Mut/WT) returned: 0.04513

Note to self: ratio of IC50 for cells with mutant EGFR to IC50 for cells with wildtype EGFR (Mut/WT) of `CN(C)C/C=C/C(=O)Nc1cc2c(Nc3ccc(Cl)c(Br)c3)ncnc2cn1` with EGFR V774M (Homo sapiens, UniProt P00533, V774M) was 0.2507

Reading of ratio of IC50 for cells with mutant EGFR to IC50 for cells with wildtype EGFR (Mut/WT) for `CNC(=O)CN1CCC(Oc2cc3c(Nc4cccc(Cl)c4F)ncnc3cc2OC)CC1` with EGFR V774M (Homo sapiens, UniProt P00533, V774M): 0.05575

Reported ratio of IC50 for cells with mutant EGFR to IC50 for cells with wildtype EGFR (Mut/WT) (EGFR V774M (Homo sapiens, UniProt P00533, V774M)) for entry `COc1cc2ncnc(Nc3cccc(Cl)c3F)c2cc1OC(=O)N1CCN(C)C[C@H]1C` is 0.3139

* * *

I'd appreciate it if you could supply ratio of IC50 for cells with mutant EGFR to IC50 for cells with wildtype EGFR (Mut/WT) values for the items below.
# measurement.target: EGFR L833F (Homo sapiens, UniProt P00533, L833F)
# Construct: expressed in transfected cells; host or cells: Ba/F3 cells, retroviral pBabe-Puro vector
# assay.overview: Ba/F3 drug screening, Cell Titer Glo, IC50 Mut/WT
# Format: cell-based
# setup.conditions: Classical-Like, 72 hours
Form: value (number only, do not type unit).

// field: ratio of IC50 for cells with mutant EGFR to IC50 for cells with wildtype EGFR (Mut/WT); key: `C=CC(=O)N1CC[C@@H](Oc2nc(Nc3ccc(N4CCC(N5CCN(C)CC5)CC4)cc3)c(C(N)=O)nc2CC)C1` ; value = 0.03054

Just so you know, measured ratio of IC50 for cells with mutant EGFR to IC50 for cells with wildtype EGFR (Mut/WT) for `COc1cc2ncnc(Nc3cccc(Cl)c3F)c2cc1OC(=O)N1CCN(C)C[C@H]1C` came out at 0.1249

Query `C=CC(=O)N[C@H]1C=C(C)c2c(-c3cnc4ccccc4c3)c3c(N)ncnc3n2C1` yields ratio of IC50 for cells with mutant EGFR to IC50 for cells with wildtype EGFR (Mut/WT) of 0.06886

Reported ratio of IC50 for cells with mutant EGFR to IC50 for cells with wildtype EGFR (Mut/WT) of `C=CC(=O)Nc1cc(Nc2nccc(-n3cc(CN(C)C)c(-c4ccccc4)n3)n2)c(OC)cc1N1CCOCC1` : 0.08625

Value of measured ratio of IC50 for cells with mutant EGFR to IC50 for cells with wildtype EGFR (Mut/WT) for the entry `C=CC(=O)Nc1cc(Nc2ncc(C(=O)OC(C)C)c(-c3cn(C)c4ccccc34)n2)c(OC)cc1N(C)CCN(C)C` : 1.233

// ratio of IC50 for cells with mutant EGFR to IC50 for cells with wildtype EGFR (Mut/WT) lookup, molecule = `C=CC(=O)Nc1cccc(Oc2nc(Nc3ccc(N4CCN(C)CC4)cc3)nc3ccsc23)c1` , result: 0.1289

// field: ratio of IC50 for cells with mutant EGFR to IC50 for cells with wildtype EGFR (Mut/WT); key: `C=CC(=O)Nc1cc(Nc2nccc(-c3c[nH]c4ccccc34)n2)c(OC)cc1N(C)CCN(C)C` ; value = 0.7284

The reported value for `CN(C)C/C=C/C(=O)Nc1cc2c(Nc3ccc(Cl)c(Br)c3)ncnc2cn1` in terms of ratio of IC50 for cells with mutant EGFR to IC50 for cells with wildtype EGFR (Mut/WT) is 0.07887

Looking up `CNC(=O)CN1CCC(Oc2cc3c(Nc4cccc(Cl)c4F)ncnc3cc2OC)CC1` , I found its ratio of IC50 for cells with mutant EGFR to IC50 for cells with wildtype EGFR (Mut/WT) recorded as 0.006619

Summary for this molecule, `Cc1cc(C(=O)Nc2nc3cccc(Cl)c3n2[C@@H]2CCCCN(C(=O)/C=C/CN(C)C)C2)ccn1` : ratio of IC50 for cells with mutant EGFR to IC50 for cells with wildtype EGFR (Mut/WT) is 0.0584

For reference, reported ratio of IC50 for cells with mutant EGFR to IC50 for cells with wildtype EGFR (Mut/WT) for `COc1cc2ncnc(Nc3ccc(F)c(Cl)c3)c2cc1NC(=O)/C=C/CN1CCCCC1` stands at 0.1863

* * *

# measurement.target: EGFR G724S T790M (Homo sapiens, UniProt P00533, G724S/T790M)
# Construct: expressed in transfected cells; host or cells: Ba/F3
# assay.overview: Ba/F3 drug screening, Cell Titer Glo, IC50 Mut/WT
# Assay type: cell-based
# setup.conditions: T790M-like-3R, 72 hours
readout.label: ratio of IC50 for cells with mutant EGFR to IC50 for cells with wildtype EGFR (Mut/WT)

What the record says about `C=CC(=O)N[C@H]1C=C(C)c2c(-c3cnc4ccccc4c3)c3c(N)ncnc3n2C1` : ratio of IC50 for cells with mutant EGFR to IC50 for cells with wildtype EGFR (Mut/WT) is 0.1693

# ratio of IC50 for cells with mutant EGFR to IC50 for cells with wildtype EGFR (Mut/WT) of `COc1cc2ncnc(Nc3cccc(Cl)c3F)c2cc1OC(=O)N1CCN(C)C[C@H]1C` = 7.7

The compound listed as `C=CC(=O)Nc1cc(Nc2nccc(-c3c[nH]c4ccccc34)n2)c(OC)cc1N(C)CCN(C)C` has a reported ratio of IC50 for cells with mutant EGFR to IC50 for cells with wildtype EGFR (Mut/WT) of 0.428

Form: compound = `COc1cc2ncnc(Nc3ccc(F)c(Cl)c3)c2cc1NC(=O)/C=C/CN1CCCCC1` ; ratio of IC50 for cells with mutant EGFR to IC50 for cells with wildtype EGFR (Mut/WT) = 12.05

Sure, the documented ratio of IC50 for cells with mutant EGFR to IC50 for cells with wildtype EGFR (Mut/WT) for `C=CC(=O)Nc1cccc(Oc2nc(Nc3ccc(N4CCN(C)CC4)cc3)nc3ccsc23)c1` is 0.01985

ratio of IC50 for cells with mutant EGFR to IC50 for cells with wildtype EGFR (Mut/WT) recorded for this compound, `CN(C)C/C=C/C(=O)Nc1cc2c(Nc3ccc(Cl)c(Br)c3)ncnc2cn1` , is 1.041

Lab note: measured ratio of IC50 for cells with mutant EGFR to IC50 for cells with wildtype EGFR (Mut/WT) of `C=CC(=O)N1CC[C@@H](Oc2nc(Nc3ccc(N4CCC(N5CCN(C)CC5)CC4)cc3)c(C(N)=O)nc2CC)C1` was 0.1395

Documented ratio of IC50 for cells with mutant EGFR to IC50 for cells with wildtype EGFR (Mut/WT) of `CNC(=O)CN1CCC(Oc2cc3c(Nc4cccc(Cl)c4F)ncnc3cc2OC)CC1` : 48.62
